- Test system: LG0703-F948-PDC spheroids with HUVEC/MSC, viability
- Assay Details: Anticancer human tumor LG0703-F948-PDC patient-derived lung adenocarcinoma cell line growth inhibition [IpAb]
- Details: second compound 0.0316 µM; first compound 0.0316 µM; stronger effect = lower value
Measured Parameter: viability, T/C (%)
Numbers only, in %.

Field: example entries. Status: answers known.
# Compound, viability, T/C / %
data = [
    ("Cn1nccc1Nc1nccc(-c2ccn(C(CO)c3ccc(Cl)c(F)c3)c(=O)c2)n1 (stereo not drawn) + CCN1CCN(Cc2ccc(Nc3ncc(F)c(-c4cc(F)c5nc(C)n(C(C)C)c5c4)n3)nc2)CC1", 89.9),
    ("Cn1ncc(Cl)c1-c1cc(C(=O)NC(CN)Cc2cccc(F)c2)sc1Cl (stereo not drawn) + CCN1CCN(Cc2ccc(Nc3ncc(F)c(-c4cc(F)c5nc(C)n(C(C)C)c5c4)n3)nc2)CC1", 86.1),
    ("C=CC(=O)N1CCN(c2nc(=O)n(-c3c(C)ccnc3C(C)C)c3nc(-c4c(O)cccc4F)c(F)cc23)C(C)C1 (stereo not drawn) + CCN1CCN(Cc2ccc(Nc3ncc(F)c(-c4cc(F)c5nc(C)n(C(C)C)c5c4)n3)nc2)CC1", 95.5),
    ("Cn1ncnc1[C@H]1c2n[nH]c(=O)c3cc(F)cc(c23)N[C@@H]1c1ccc(F)cc1 + CCN1CCN(Cc2ccc(Nc3ncc(F)c(-c4cc(F)c5nc(C)n(C(C)C)c5c4)n3)nc2)CC1", 92.6),
    ("CC(C)n1nc(-c2ccc3oc(N)nc3c2)c2c(N)ncnc21 + CCN1CCN(Cc2ccc(Nc3ncc(F)c(-c4cc(F)c5nc(C)n(C(C)C)c5c4)n3)nc2)CC1", 22.3),
]

Here are 3 compounds. What values of viability, T/C were reported for them?
1. Cc1nc(NC(=O)N2CCCC2C(N)=O)sc1-c1ccnc(C(C)(C)C(F)(F)F)c1 (stereo not drawn) + CCN1CCN(Cc2ccc(Nc3ncc(F)c(-c4cc(F)c5nc(C)n(C(C)C)c5c4)n3)nc2)CC1
2. C=CCn1c(=O)c2cnc(Nc3ccc(N4CCN(C)CC4)cc3)nc2n1-c1cccc(C(C)(C)O)n1 + CCN1CCN(Cc2ccc(Nc3ncc(F)c(-c4cc(F)c5nc(C)n(C(C)C)c5c4)n3)nc2)CC1
3. CCCS(=O)(=O)Nc1ccc(F)c(C(=O)c2c[nH]c3ncc(-c4ccc(Cl)cc4)cc23)c1F + CCN1CCN(Cc2ccc(Nc3ncc(F)c(-c4cc(F)c5nc(C)n(C(C)C)c5c4)n3)nc2)CC1

1. 95.3
2. 99.6
3. 94.5

----------
- Tested on: LG0703-F948-PDC spheroids with HUVEC/MSC, viability
- Assay Details: Anticancer human tumor LG0703-F948-PDC cell line growth inhibition [IpAb];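 note: spheroids exposed to compounds for seven days before readout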;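 for viability, T/C: T/C percent relative to DMSO vehicle wells set as 100% viability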
- Details: second compound 0.316 µM; first compound 0.949 µM; stronger effect = lower value
Measured Parameter: viability, T/C

# Compound, viability, T/C
measured = [
    ("CC(C)(C)c1cnc(CSc2cnc(NC(=O)C3CCNCC3)s2)o1 + CC(C)NCC(C(=O)N1CCN(c2ncnc3c2C(C)CC3O)CC1)c1ccc(Cl)cc1", "0.3%"),
]

Parameter requested: viability, T/C. Apply to each item below.
1. Cn1cnc2c(F)c(Nc3ccc(Br)cc3Cl)c(C(=O)NOCCO)cc21 + CC(C)NCC(C(=O)N1CCN(c2ncnc3c2C(C)CC3O)CC1)c1ccc(Cl)cc1
2. Cn1cnc2c(F)c(Nc3ccc(Br)cc3Cl)c(C(=O)NOCCO)cc21 + CCN1CCN(Cc2ccc(Nc3ncc(F)c(-c4cc(F)c5nc(C)n(C(C)C)c5c4)n3)nc2)CC1

1. 7.98%
2. 48.8%

Param readout= viability, T/C; system= LG0703-F948-PDC spheroids with HUVEC/MSC, viability; entry= CC(C)(C)c1cnc(CSc2cnc(NC(=O)C3CCNCC3)s2)o1 + CCN1CCN(Cc2ccc(Nc3ncc(F)c(-c4cc(F)c5nc(C)n(C(C)C)c5c4)n3)nc2)CC1 ; returns value.
0.2%

----------
- Tested on: LG0703-F948-PDC spheroids with HUVEC/MSC, viability
- Assay Details: Anticancer human tumor LG0703-F948-PDC cell line growth inhibition [IpAb];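 note: spheroids exposed to compounds for seven days before readout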
- Details: curve of compound
Measured Parameter: IC50

# return IC50 for each item in the list
1. Cn1ncnc1[C@H]1c2n[nH]c(=O)c3cc(F)cc(c23)N[C@@H]1c1ccc(F)cc1
2. CCCS(=O)(=O)Nc1ccc(F)c(C(=O)c2c[nH]c3ncc(-c4ccc(Cl)cc4)cc23)c1F

1: > 0.1 µM; 2: > 10 µM

----------
- System: LG0703-F948-PDC spheroids with HUVEC/MSC, viability
- Assay Details: Anticancer human tumor LG0703-F948-PDC cell line growth inhibition [IpAb];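 note: spheroids exposed to compounds for seven days before readout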;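 for viability, T/C: T/C percent relative to DMSO vehicle wells set as 100% viability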
- Details: second compound 0.1 µM; first compound 0.949 µM; stronger effect = lower value
Measured Parameter: viability, T/C (%)
Give bare numbers, in %.

I need viability, T/C for every entry listed below, if you could help.
1. CC(C)(C)c1cnc(CSc2cnc(NC(=O)C3CCNCC3)s2)o1 + CCN1CCN(Cc2ccc(Nc3ncc(F)c(-c4cc(F)c5nc(C)n(C(C)C)c5c4)n3)nc2)CC1
2. Cn1cnc2c(F)c(Nc3ccc(Br)cc3Cl)c(C(=O)NOCCO)cc21 + CCN1CCN(Cc2ccc(Nc3ncc(F)c(-c4cc(F)c5nc(C)n(C(C)C)c5c4)n3)nc2)CC1
3. CC(C)(C)c1cnc(CSc2cnc(NC(=O)C3CCNCC3)s2)o1 + CC(C)NCC(C(=O)N1CCN(c2ncnc3c2C(C)CC3O)CC1)c1ccc(Cl)cc1
4. Cn1cnc2c(F)c(Nc3ccc(Br)cc3Cl)c(C(=O)NOCCO)cc21 + CC(C)NCC(C(=O)N1CCN(c2ncnc3c2C(C)CC3O)CC1)c1ccc(Cl)cc1

1. 0.19
2. 45.2
3. 0.41
4. 18.3

----------
- Test system: LG0703-F948-PDC spheroids with HUVEC/MSC, viability
- Assay Details: Anticancer human tumor LG0703-F948-PDC cell line growth inhibition [IpAb];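 note: spheroids exposed to compounds for seven days before readout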;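 for viability, T/C: T/C percent relative to DMSO vehicle wells set as 100% viability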
- Details: second compound 10 µM; first compound 1 µM; stronger effect = lower value
For each record, write down the corresponding viability, T/C.
Numbers only, in %.

# Compound, viability, T/C, %
records = [
    ("CCCS(=O)(=O)Nc1ccc(F)c(C(=O)c2c[nH]c3ncc(-c4ccc(Cl)cc4)cc23)c1F + CC(C)NCC(C(=O)N1CCN(c2ncnc3c2C(C)CC3O)CC1)c1ccc(Cl)cc1", 45.1),
    ("Cc1nc(NC(=O)N2CCCC2C(N)=O)sc1-c1ccnc(C(C)(C)C(F)(F)F)c1 (stereo not drawn) + CC(C)NCC(C(=O)N1CCN(c2ncnc3c2C(C)CC3O)CC1)c1ccc(Cl)cc1", 19),
    ("C=CC(=O)N1CCN(c2nc(=O)n(-c3c(C)ccnc3C(C)C)c3nc(-c4c(O)cccc4F)c(F)cc23)C(C)C1 (stereo not drawn) + CC(C)NCC(C(=O)N1CCN(c2ncnc3c2C(C)CC3O)CC1)c1ccc(Cl)cc1", 42.7),
    ("CC1(C)CCC(CN2CCN(c3ccc(C(=O)NS(=O)(=O)c4ccc(NCC5CCOCC5)c([N+](=O)[O-])c4)c(Oc4cnc5[nH]ccc5c4)c3)CC2)=C(c2ccc(Cl)cc2)C1 + CC(C)NCC(C(=O)N1CCN(c2ncnc3c2C(C)CC3O)CC1)c1ccc(Cl)cc1", 37.9),
    ("COc1c(OCCCN2CCOCC2)ccc2c3n(c(=NC(=O)c4cnc(N)nc4)nc12)CCN3 + CC(C)NCC(C(=O)N1CCN(c2ncnc3c2C(C)CC3O)CC1)c1ccc(Cl)cc1", 2.45),
]

Below is a list of compounds. For each, state its recorded viability, T/C.
1. Cn1ncc(Cl)c1-c1cc(C(=O)NC(CN)Cc2cccc(F)c2)sc1Cl (stereo not drawn) + CC(C)NCC(C(=O)N1CCN(c2ncnc3c2C(C)CC3O)CC1)c1ccc(Cl)cc1
2. C=CCn1c(=O)c2cnc(Nc3ccc(N4CCN(C)CC4)cc3)nc2n1-c1cccc(C(C)(C)O)n1 + CC(C)NCC(C(=O)N1CCN(c2ncnc3c2C(C)CC3O)CC1)c1ccc(Cl)cc1
3. Cn1nccc1Nc1nccc(-c2ccn(C(CO)c3ccc(Cl)c(F)c3)c(=O)c2)n1 (stereo not drawn) + CC(C)NCC(C(=O)N1CCN(c2ncnc3c2C(C)CC3O)CC1)c1ccc(Cl)cc1

1: 39.3; 2: 5.77; 3: 6.93

----------
Please go through the items and note down their viability, T/C.
- Tested on: LG0703-F948-PDC spheroids with HUVEC/MSC, viability
- Assay Details: Anticancer human tumor LG0703-F948-PDC cell line growth inhibition [IpAb];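 note: spheroids exposed to compounds for seven days before readout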;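 for viability, T/C: T/C percent relative to DMSO vehicle wells set as 100% viability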
- Details: second compound 1 µM; first compound 0.000316 µM; stronger effect = lower value
Answers are plain numbers, in %.

# Compound, Measured Parameter, Unit Symbol, Observed Value
records = [
    ("Cn1ncnc1[C@H]1c2n[nH]c(=O)c3cc(F)cc(c23)N[C@@H]1c1ccc(F)cc1 + CCN1CCN(Cc2ccc(Nc3ncc(F)c(-c4cc(F)c5nc(C)n(C(C)C)c5c4)n3)nc2)CC1", "viability, T/C", "%", 82.2),
    ("CC(C)n1nc(-c2ccc3oc(N)nc3c2)c2c(N)ncnc21 + CCN1CCN(Cc2ccc(Nc3ncc(F)c(-c4cc(F)c5nc(C)n(C(C)C)c5c4)n3)nc2)CC1", "viability, T/C", "%", 90),
    ("Cn1ncnc1[C@H]1c2n[nH]c(=O)c3cc(F)cc(c23)N[C@@H]1c1ccc(F)cc1 + CC(C)NCC(C(=O)N1CCN(c2ncnc3c2C(C)CC3O)CC1)c1ccc(Cl)cc1", "viability, T/C", "%", 60.1),
]

Moving on to another compound below.
Any idea what viability, T/C was measured for CC(C)n1nc(-c2ccc3oc(N)nc3c2)c2c(N)ncnc21 + CC(C)NCC(C(=O)N1CCN(c2ncnc3c2C(C)CC3O)CC1)c1ccc(Cl)cc1 ?
49.1
